# EXPERIMENTAL SYSTEM: Penicillin-binding protein 2x (Streptococcus pneumoniae serotype 4 (strain ATCC BAA-334 / TIGR4))
# Sequence (P14677 whole entry): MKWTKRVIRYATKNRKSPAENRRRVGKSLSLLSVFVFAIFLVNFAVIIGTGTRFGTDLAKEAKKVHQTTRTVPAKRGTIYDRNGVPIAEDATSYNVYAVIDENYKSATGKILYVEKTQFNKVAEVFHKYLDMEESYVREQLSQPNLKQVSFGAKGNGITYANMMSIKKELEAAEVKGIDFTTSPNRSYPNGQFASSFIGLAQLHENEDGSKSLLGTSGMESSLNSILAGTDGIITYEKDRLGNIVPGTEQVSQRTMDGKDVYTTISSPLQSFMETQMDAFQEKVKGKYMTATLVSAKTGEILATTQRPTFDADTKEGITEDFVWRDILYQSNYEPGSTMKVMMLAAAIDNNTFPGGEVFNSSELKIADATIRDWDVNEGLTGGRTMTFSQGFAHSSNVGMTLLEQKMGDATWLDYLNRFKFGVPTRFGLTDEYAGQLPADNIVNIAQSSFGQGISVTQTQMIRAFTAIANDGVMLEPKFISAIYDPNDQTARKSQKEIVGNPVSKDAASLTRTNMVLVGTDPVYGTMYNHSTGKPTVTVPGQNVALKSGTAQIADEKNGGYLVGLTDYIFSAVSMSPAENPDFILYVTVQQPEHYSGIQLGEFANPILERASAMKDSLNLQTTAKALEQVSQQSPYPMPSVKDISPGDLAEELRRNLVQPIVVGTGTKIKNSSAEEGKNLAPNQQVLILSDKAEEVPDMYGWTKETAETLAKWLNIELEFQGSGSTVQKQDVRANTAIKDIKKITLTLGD
# PROCEDURE DETAILS: Displacement of Biocillin FL from Streptococcus pneumoniae 1077 PBP2X
Attribute: pIC50
As a rule, pIC50 stands for the negative log10 of the concentration, concentration in M.

CO/N=C(\C(=O)N[C@@H]1C(=O)N2C(C(=O)O)=C(COC(N)=O)CS[C@H]12)c1ccco1: 7.85
CC1(C)S[C@@H]2[C@H](NC(=O)[C@H](N)c3ccc(O)cc3)C(=O)N2[C@H]1C(=O)O: 7.22
C[C@@H](O)[C@H]1C(=O)N2C(C(=O)O)=C([C@H]3CCCO3)S[C@H]12: 6.16
CC1(C)S[C@@H]2[C@H](NC(=O)Cc3ccccc3)C(=O)N2[C@H]1C(=O)O: 7.62

Here is the next item to consider.
Query: May I ask what pIC50 has been recorded for C[C@@H](O)[C@H]1C(=O)N2C(C(=O)O)=C(SCCNC=N)C[C@H]12 [IMIPENEM ANHYDROUS] ?
Reply: 6.22
